System: A549
Test: Cytotoxicity against human A549 cells assessed as reduction in cell viability by CCK-8 assay
Type: functional, cell-based
Items are presented alongside their recorded IC50.
Could you give me the number in µM? Just the number is fine.

[Q] Field request: IC50 | item: C=C(C)[C@@H]1CC[C@]2(C(=O)O)CC[C@]3(C)[C@H](C[C@H]4OC(=O)C[C@@H](O)[C@]5(C)[C@@H]4[C@@]3(C)CC[C@H]5C(=C)C)[C@@H]12
[A] 145

[Q] Field request: IC50 | item: C=C(C)[C@@H]1CC[C@]2(C(=O)OCCCn3ccnc3C)CC[C@]3(C)[C@H](C[C@H]4OC(=O)C[C@@H](O)[C@]5(C)[C@@H]4[C@@]3(C)CC[C@H]5C(=C)C)[C@@H]12
[A] 21.5

[Q] Field request: IC50 | item: C=C(C)[C@@H]1CC[C@]2(C(=O)OCCCCn3ccnc3CC)CC[C@]3(C)[C@H](C[C@@H](O)[C@@H]4[C@@]5(C)C(CC(=O)OC)OC(C)(C)C5CC[C@]43C)[C@@H]12 (stereo not given in full)
[A] 28.5

[Q] Field request: IC50 | item: C=C(C)[C@@H]1CC[C@]2(C(=O)OCCCCCCn3cnc(C)c3)CC[C@]3(C)[C@H](C[C@H]4OC(=O)C[C@@H](O)[C@]5(C)[C@@H]4[C@@]3(C)CC[C@H]5C(=C)C)[C@@H]12
[A] 14.2

[Q] Field request: IC50 | item: C=C(C)[C@@H]1CC[C@]2(C(=O)OCCCCCn3ccnc3C)CC[C@]3(C)[C@H](C[C@H]4OC(=O)C[C@@H](O)[C@]5(C)[C@@H]4[C@@]3(C)CC[C@H]5C(=C)C)[C@@H]12
[A] 15.9

Where do these numbers come from? They come from ChEMBL document CHEMBL5143734.
